Assay: Rat biodistribution of Tc-99m complexes
Conditions: 60 min p.i.
experimental endpoint: Heart/Blood Counts/Gram Ratio

Example cases with answers are listed next.
molecule	Heart/Blood Counts/Gram Ratio
CCOCCP(CCOCCF)CCP(CCOCC)CCOCCF (stereo not shown)	33.2
CCOC(C)CP(CCP(CC(C)OCC)CC(C)OCC)CC(C)OCC (stereo not shown)	7.9
COCC(COC)CP(CCP(CC(COC)COC)CC(COC)COC)CC(COC)COC	13.9

[I] COC(C)CP(CCP(CC(C)OC)CC(C)OC)CC(C)OC (stereo not shown)
[II] CCOCP(CCP(COCC)COCC)COCC
Q) Consider I and II . Which of these has its Heart/Blood Counts/Gram Ratio at a higher number? Kindly state the label of the option you pick.
A) I
(I: 5.70, II: 2.6)

[1] COC(C)(C)CCP(CCP(CCC(C)(C)OC)CCC(C)(C)OC)CCC(C)(C)OC
[2] CCOCCCP(CCOC)CCP(CCCOCC)CCOC (stereo not shown)
[3] CCOC=CP(C=COCC)CCP(C=COCC)C=COCC
Q) Would you mind ranking these molecules by ascending Heart/Blood Counts/Gram Ratio? I would appreciate it if you listed the labels in the requested order.
A) 3, 1, 2
